- Test system: A549
- ASSAY EXPLANATION: relative viability (normalised to negative control = 1, bortezomib = 0) (fraction); higher = less cytotoxic
- ASSAY SETUP: inflammatory serum-free RHB-A with cytokines + LPS; 5 d + 24 h CellTiter-Blue; compound 30 nM; GSK126 pretreatment: 5 uM GSK126
As shown below, each of these compounds has a reported relative viability value.
Returns: the value as a bare number; no unit string appended.

Use the examples below as a reference point.
[[record]]
compound = "Cc1nc(NC(=O)N2CCC[C@H]2C(N)=O)sc1-c1csc(C(C)(C)C)n1"
reported_metric = "relative viability"
observed = 0.809

[[record]]
compound = "COc1cc2ncnc(Nc3ccc(F)c(Cl)c3)c2cc1OCCCN1CCOCC1"
reported_metric = "relative viability"
observed = 0.922

[[record]]
compound = "CN1CC[C@H](c2c(O)cc(O)c3c(=O)cc(-c4ccccc4Cl)oc23)[C@H](O)C1 [Flavopiridol (Alvocidib)]"
reported_metric = "relative viability"
observed = 0.777


The recorded relative viability for O=C1c2ccccc2-c2n[nH]c3cccc1c23 is 0.785
